Data provenance is ChEMBL document CHEMBL1961873.

Target: Cyclin-dependent kinase 2 (Homo sapiens);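 also: mean inhibition measured against the CDK2/cyclin E complex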
Settings: at 1 µM
Each item that follows carries a reported inhibition.
Expressed in %, but write only the number.

Solved cases (4 shown):
| compound.smiles | inhibition / % |
| --- | --- |
| COc1cc2ncn(-c3cc(OCc4ccccc4S(C)(=O)=O)c(C#N)s3)c2cc1OC | 5.94 |
| Cc1cc(Cl)cc2c1NC(=O)C2=NNc1ccc(S(N)(=O)=O)cc1 | 4.71 |
| c1ccc(Cc2nc3ccc(Nc4ncnc5ccccc45)cc3[nH]2)cc1 | 8.1 |
| FC(F)(F)c1ccc(-c2nn3ncccc3c2-c2ccnc(Nc3ccc4c(c3)OCCO4)n2)cc1 | 5.36 |

Query :: Answer with the recorded inhibition for the molecule listed here: `COc1cc(Nc2nccc(-c3cnn4ncccc34)n2)cc(OC)c1`
Result :: 90

---

Each item that follows carries a reported inhibition.
Target: Muscle, skeletal receptor tyrosine-protein kinase (Homo sapiens);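 also: values are mean inhibition of MuSK from the GSK PKIS kinase screening panel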
Sequence (whole entry): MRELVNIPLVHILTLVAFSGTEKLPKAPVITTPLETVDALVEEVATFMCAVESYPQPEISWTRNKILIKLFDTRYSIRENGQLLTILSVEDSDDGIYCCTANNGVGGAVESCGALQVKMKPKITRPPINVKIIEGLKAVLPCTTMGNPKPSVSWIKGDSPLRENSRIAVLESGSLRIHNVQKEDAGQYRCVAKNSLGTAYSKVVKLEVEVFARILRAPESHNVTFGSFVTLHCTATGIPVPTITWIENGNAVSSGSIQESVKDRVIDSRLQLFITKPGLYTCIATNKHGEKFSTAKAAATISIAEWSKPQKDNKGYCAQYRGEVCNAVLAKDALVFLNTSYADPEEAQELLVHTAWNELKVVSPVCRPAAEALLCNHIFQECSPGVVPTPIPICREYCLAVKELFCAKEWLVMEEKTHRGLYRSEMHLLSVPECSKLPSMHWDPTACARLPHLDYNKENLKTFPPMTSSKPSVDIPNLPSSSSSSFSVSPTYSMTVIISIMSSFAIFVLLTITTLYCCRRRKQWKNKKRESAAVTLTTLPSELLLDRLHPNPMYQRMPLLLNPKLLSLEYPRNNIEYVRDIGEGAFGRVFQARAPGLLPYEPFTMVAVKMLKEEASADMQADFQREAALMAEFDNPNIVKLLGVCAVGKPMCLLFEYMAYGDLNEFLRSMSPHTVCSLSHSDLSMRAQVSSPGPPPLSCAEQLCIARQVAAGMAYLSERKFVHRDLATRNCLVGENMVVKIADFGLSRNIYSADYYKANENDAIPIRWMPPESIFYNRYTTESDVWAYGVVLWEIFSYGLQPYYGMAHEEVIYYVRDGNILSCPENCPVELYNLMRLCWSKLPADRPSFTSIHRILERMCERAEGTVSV
Conditions: at 0.1 µM
Expressed in %, but write only the number.

Solved cases (3 shown):
| compound.smiles | inhibition (%) |
| --- | --- |
| CCn1c(-c2nonc2N)nc2ccc(F)cc21 | 2.27 |
| O=C1Nc2ccccc2/C1=C/Nc1ccc2[nH]c(=O)[nH]c2c1 | 6.75 |
| COc1ccc2ncnc(Nc3ccc(OCc4ccccc4)cc3)c2c1 | 1.31 |

Query :: Answer with the recorded inhibition for the compound listed here: `c1ccc(Cc2nc3ccc(Nc4ncnc5ccccc45)cc3[nH]2)cc1`
Result :: 3.14

Query :: Answer with the recorded inhibition for the compound listed here: `NS(=O)(=O)c1ccc(-c2cc3ccncc3cc2OCc2ccccc2)cc1`
Result :: 1.45

Query :: Answer with the recorded inhibition for the compound listed here: `c1ccc(Nc2ncc(-c3ccccc3)o2)cc1`
Result :: 3.65

Query :: Answer with the recorded inhibition for the compound listed here: `Cc1ccc2c(-c3ccnc(Nc4cccc(C(F)(F)F)c4)n3)c(-c3ccccc3)nn2n1`
Result :: 4.93

Query :: Answer with the recorded inhibition for the compound listed here: `Cc1ccc(NC(=O)CC2CC2)cc1-c1ccc(C(=O)NCC2CC2)cc1`
Result :: 2.1

Query :: Answer with the recorded inhibition for the compound listed here: `CN(C)C(=O)O[C@@H]1CN[C@@H](C#Cc2cc3ncnc(Nc4ccc(OCc5cccc(F)c5)c(Cl)c4)c3s2)C1`
Result :: -0.25

Query :: Answer with the recorded inhibition for the compound listed here: `CCS(=O)(=O)c1ccc(OC)c(Nc2nccc(N(C)c3ccc4c(C)n[nH]c4c3)n2)c1`
Result :: 2.51
